- system under test: T1, human BCMA (huBCMA), full length, on cells (human, UniProt Q02223 1-184)
- T1 construct: also called native huBCMA; B-cell maturation antigen
- T1 chain: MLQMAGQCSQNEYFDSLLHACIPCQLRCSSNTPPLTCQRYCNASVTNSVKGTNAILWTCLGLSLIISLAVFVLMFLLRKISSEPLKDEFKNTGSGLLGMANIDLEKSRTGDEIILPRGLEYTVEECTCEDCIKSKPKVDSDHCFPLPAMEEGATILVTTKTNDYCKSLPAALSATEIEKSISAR
- protocol notes: FACS
readout type: MFI

INSERT INTO results (binder, experimental_value) VALUES
  ('37B2 (antibody, V domains shown, Tested as purified hybridoma IgG2 or IgG4; also called Ab-16; 37B2.1) VH: EVQLLESGGALVQPGGSLRLSCAASGFTFSNYAMNWVRQAPGKGLEWVSAISVGGDTYYADSVKGRFTISRDNSKNTLYLHVNSLSAEDSAVYYCAKDQVTLVRGVWYYYGLDVWGQGTTVTVSS VL: VIVLIQSPLSLPVTPGEPASISCRSSQSLLHSNGNNYLDWYLQKPGQSPHLLISLGSNRTSGVPDRFSGSGSGTDFTLKISRVEAEDVGFYYCMQALQPPRRFGQGTKLEIKR', 83700);
